Recorded IC50 for the following compounds
Assay: Inhibition of TNFalpha stimulated NF-kappaB (unknown origin) expressed in HEK293 cells after 5 hrs by luciferase reporter gene based luminescence assay
Format: cell-based
Conditions: Homo sapiens, HEK293, 5 h
MEASURED_ATTRIBUTE: IC50 (µM)

compound=C[C@H]1NCCc2c1cc1c([nH]c3ccccc31)c2CO display_unit=µM censor_symbol=> measured_value=50
compound=COC(=O)[C@@H]1C[C@@]23CCCN4CC[C@@]5(c6ccccc6N(C)[C@]15CC2)[C@@H]43 display_unit=µM censor_symbol== measured_value=8.8
compound=COC(=O)c1nccc2c1[nH]c1ccccc12 display_unit=µM censor_symbol=> measured_value=50
compound=C/C=C1/COC(=O)[C@@H]2[C@H]1C[C@@H]1NCCc3c1n2c1ccccc31 display_unit=µM censor_symbol== measured_value=9.4
compound=C/C=C1/C[N@+]2(C)C3Cc4c([nH]c5ccc(O)cc45)[C@@H]2C[C@H]1[C@@H]3CO display_unit=µM censor_symbol=> measured_value=50
compound="C=C1C(=O)O[C@@H]2C3O[C@]3(C)CC/C=C(\\C)CC[C@@H]12 (stereo partly specified)" display_unit=µM censor_symbol== measured_value=0.4

The origin of these recorded values is ChEMBL document CHEMBL4145556.
